These entries and their values trace back to the DeepSol protein solubility set.

procedure text: soluble on expression in E. coli; label from the status in PepcDB or PDB records

[
  {
    "sequence data": "MGSDKIHHHHHHMLYLIGLGLSYKSDITVRGLEAIKKCSRVYLEHYTSILMAASQEELESYYGKEIILADRELVETGSKQILNNADKEDVAFLVVGDPFGATTHTDLVLRAKREAIPVEIIHNASVMNAVGACGLQLYNFGQTVSMVFFTDNWRPDSWYDKIWENRKIGLHTLVLLDIKVKEQSIENMARGRLIYEPPRYMSIAQCCEQLLEIEEKRGTKAYTPDTPAVAISRLGSSSQSFKSGTISELANYDSGEPLHSLVILGRQCHELELEYLLEFADDKEKFGKDVANDQEYFKPAAWVPPTEDDSDE",
    "soluble on expression in E. coli": "not soluble"
  },
  {
    "sequence data": "MTNNITPIHEYKKYWAECFGTAPFLPTSRKEMDALGWDSCDIIIVTGDAYVDHPSFGMAIIGRLLEAQGFRVGIIAQPEWQNKNAFMQLGKPNLFFGITAGNMDSMINRYTADKKLRHDDAYTPNNEGGKRPDRATLVYSQRCREAYKEVPIVLGGIEASLRRVAHYDYWSDKVRRSVLFDAKADILLFGNAERALVEVAHRIANGEDISTMTNIRGTAVNLPAAPEGYTVIDSSRIEKPRKEAFVPKNPYEVETQCETKKDEPVAQPITIRPSRHDAATTAVRLPSFEKLRNDRILYAHASRVLHLETNPYSGRALLQSHGDRELWVNQAPIPLTTEEMDFVFGLPYARVPHPMYGKAKIPAYDMIKTS",
    "soluble on expression in E. coli": "not soluble"
  },
  {
    "sequence data": "MSLTNKHPSLFSPFMLTEKIKLRNRIVMAPMTTWSANPDGTISEQELEFYKRRSQNVGLVITGCTYVTPSGIGFTHEFAAYDDRFINSLEKLAAAAKSGGAPAILQIFHAGNKAIPELVPNNDVISASASSVKSGDFMKRVVQSREMTENEIQETIRAFGDVTKRAIKAGFDGIELHGAHGFLLQNFFSPLFNQRNDRWGGDLEGRMRFPLAVLQEVKNVVYEYATKPFAIGYRISPEESATGGLRIEDTYKLLDRLISSGISYIHTSLVSINDSYPVESPNGPRTIELILNHIAGRVPVIAAGKIRTPSQAQEAISTGLPLVAIGKGLVINPEWVTLAESGRGHEIQTTLNPQLVPELTIPDKLWDQIQASKGEGHHHHHH",
    "soluble on expression in E. coli": "soluble"
  },
  {
    "sequence data": "ADQLLRKKRRIFIHSVGAGTINALLDCLLEDEVISQEDMNKVRDENDTVMDKARVLIDLVTGKGPKSCCKFIKHLCEEDPQLASKMGLH",
    "soluble on expression in E. coli": "soluble"
  },
  {
    "sequence data": "MGSDKIHHHHHHVGTGDGNAIWPIRSVHLIGAIYPHILEELMLNTVILYSTVDGQTLAICQKIKQILVEQGEQVSVVNLAEVEADDLASVDKVVIGASIRYGKHRPELFKFVEQHKVLLDTKHNSFFSVNVVARKPEKNTPETNPYMQKFSNLSAWKPQLLGVFAGKIDYPRYRFFDKFMIRFIMWMTKGPTDTQGTFEFTDWGKVDDYAKQIAAQK",
    "soluble on expression in E. coli": "not soluble"
  },
  {
    "sequence data": "MSLLPRTTSVKPGEKFDVIIVGLGPAAYGAALYSARYMLKTLVIGETPGGQLTEAGIVDDYLGLIEIQASDMIKVFNKHIEKYEVPVLLDIVEKIENRGDEFVVKTKRKGEFKADSVILGIGVKRRKLGVPGEQEFAGRGISYCSVADAPLFKNRVVAVIGGGDSALEGAEILSSYSTKVYLIHRRDTFKAQPIYVETVKKKPNVEFVLNSVVKEIKGDKVVKQVVVENLKTGEIKELNVNGVFIEIGFDPPTDFAKSNGIETDTNGYIKVDEWMRTSVPGVFAAGDCTSAWLGFRQVITAVAQGAVAATSAYRYVTEKKGKK",
    "soluble on expression in E. coli": "soluble"
  }
]
